- ASSAY_SYSTEM: SARS-CoV-2 RBD extracellular domain expressed with a C-terminal myc-myc-hexahistidine tag (SARS-COV-2 RBD-MMH) (SARS-CoV-2)
- RUN_PARAMETERS: remark: other sources report otherwise
OBSERVATION_TYPE: pKd
Numbers only, as −log10 of the molar value.

Example entries begin here.
mAb11006 (antibody, V domains shown) VH: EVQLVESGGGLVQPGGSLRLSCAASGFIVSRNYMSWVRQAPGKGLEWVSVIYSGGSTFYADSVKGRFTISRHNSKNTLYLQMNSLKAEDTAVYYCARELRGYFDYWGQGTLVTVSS VL: DIQLTQSPSFLSASVGDRVTITCWASQGISSYLAWYQQKPGKAPKLLIYAASTLQSGVPSRFSGSGSGTEFTLTISSLQPEDFATYYCQLLNSYPYTFGQGTKLEIK    8.39
mAb11004 (antibody, V domains shown) VH: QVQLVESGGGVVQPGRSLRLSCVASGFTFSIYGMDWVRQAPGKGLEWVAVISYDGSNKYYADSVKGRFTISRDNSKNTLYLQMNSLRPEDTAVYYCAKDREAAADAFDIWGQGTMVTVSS VL: DIQMTQSPSSVSASVGDRVTITCRASQGISSWLAWYQQKPGKAPKLLIYAASSLHSGVPSRFSGSGSGTDFTLTISSLQPEDFATYYCQQANSFRLTFGGGTKVEIK    7.78
mAb11008 (antibody, V domains shown) VH: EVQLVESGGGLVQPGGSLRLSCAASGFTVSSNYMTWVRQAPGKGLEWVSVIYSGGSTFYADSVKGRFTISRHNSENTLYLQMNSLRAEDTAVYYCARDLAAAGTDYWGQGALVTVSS VL: DIQLTQSPSFLSASVGDRVTITCWASQGISSYLAWYQQKPGKAPKLLIYAASTLQSGVPSRFSGSGSGTEFTLTISSLQPDDFATYYCQHLNSYLYTFGQGTKLEIK    7.23

Query string: Give its pKd value. Item: mAb10998 (antibody, V domains shown) VH: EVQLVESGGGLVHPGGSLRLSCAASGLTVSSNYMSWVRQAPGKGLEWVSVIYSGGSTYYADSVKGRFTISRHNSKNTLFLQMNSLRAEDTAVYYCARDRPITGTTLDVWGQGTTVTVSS VL: DIQMTQSPSSLFASVGDRVTITCRASQSISSYLNWYQQKPGKAPKLLIYAASSLQSGVPSRFSGSGSGTDFTLTISSLQPEDFAFYYCQQTYSTPPITFGQGTRLEIK
Result string: 6.93

Origin of the recorded values: patent US20220356230A1
